So I've got a bunch of sequences here, and I need their folding enthalpy values.
assay: folding enthalpy; higher = less favourable; fluorescence melt of hairpins on a sequencing array, two-state fit; conditions: sodium 0.088 M
Be sure to follow the number with its unit.

Annotate the sequence GCCCTTGAAAAAGGGC ((((((....)))))) with its measured folding enthalpy.
-36 kcal/mol

Annotate the sequence CGTGCCGGAAACGGAACG (((.(((....))).))) with its measured folding enthalpy.
-37.7 kcal/mol

Annotate the sequence GAATACGGAAACGCATTC ((((.((....)).)))) with its measured folding enthalpy.
-29.8 kcal/mol

Annotate the sequence GAAAGGAAACTTTC (((((....))))) with its measured folding enthalpy.
-16.9 kcal/mol

Annotate the sequence GCTACCGGAAACGGCAGC (((.(((....))).))) with its measured folding enthalpy.
-38.7 kcal/mol

Annotate the sequence GACGACGAAAGTCCAGTC ((((((....)))..))) with its measured folding enthalpy.
-21.5 kcal/mol

Annotate the sequence GATCAGAAATCTGATC ((((((....)))))) with its measured folding enthalpy.
-35.2 kcal/mol

Annotate the sequence GTTAATGGAAACATTAGC (.(((((....))))).) with its measured folding enthalpy.
-20.7 kcal/mol

Annotate the sequence GCCGTAGGAAACTACGAC (.(((((....))))).) with its measured folding enthalpy.
-18.5 kcal/mol

Annotate the sequence GGCCGACGAAAGTCAGCC (((.(((....))).))) with its measured folding enthalpy.
-35.5 kcal/mol

Annotate the sequence GATCAGCCAGCTGATC ((((((....)))))) with its measured folding enthalpy.
-40.1 kcal/mol

Annotate the sequence GATCTAAACATAGATC ((((((....)))))) with its measured folding enthalpy.
-26.9 kcal/mol

Annotate the sequence GCGTACGAAAGTAAACGC ((((((....)))..))) with its measured folding enthalpy.
-34.5 kcal/mol
